Values compiled from ChEMBL document CHEMBL3352355.

experiment.summary: Cytotoxicity against human THP1 cells
Assay type: cell-based
measurement.context: THP-1 cells
Mark criterion met only for CC50 values smaller than 300 µM; exact matches and larger values are criterion not met.

Cc1ccsc1[C@@H]1C[C@H](O)Cc2cc(OC(F)(F)F)ccc2N1 (relative stereo)    criterion met
FC(F)(F)Oc1ccc2c(c1)C[C@@H]1C[C@@H](c3ccco3)N2O1 (racemic)    criterion not met
Fc1ccc2c(c1)C[C@@H]1C[C@@H](c3ccco3)N2O1 (racemic)    criterion not met
Cc1ccc([C@@H]2C[C@H]3Cc4ccccc4N2O3)s1 (racemic)    criterion not met
Fc1ccc2c(c1)C[C@@H]1C[C@@H](c3ccoc3)N2O1 (racemic)    criterion not met
Cc1ccc([C@@H]2C[C@H]3Cc4cc(F)ccc4N2O3)s1 (racemic)    criterion met
Cc1ccc([C@@H]2C[C@H]3Cc4cc(Cl)ccc4N2O3)s1 (racemic)    criterion not met
Cc1ccc([C@@H]2C[C@H](O)Cc3ccccc3N2)s1 (relative stereo)    criterion not met
Cc1ccc([C@@H]2C[C@H](O)Cc3cc(F)ccc3N2)s1 (relative stereo)    criterion not met
FC(F)(F)Oc1ccc2c(c1)C[C@@H]1C[C@@H](c3cccs3)N2O1 (racemic)    criterion not met
Clc1ccc2c(c1)C[C@@H]1C[C@@H](c3ccc(Br)s3)N2O1 (racemic)    criterion not met
Cc1ccsc1[C@@H]1C[C@H](O)Cc2cc(F)ccc2N1 (relative stereo)    criterion not met
O[C@@H]1Cc2cc(OC(F)(F)F)ccc2N[C@H](c2ccco2)C1 (relative stereo)    criterion met
Cc1ccc([C@@H]2C[C@H]3Cc4cc(F)ccc4N2O3)o1 (racemic)    criterion not met
Cc1ccc([C@@H]2C[C@H](O)Cc3cc(OC(F)(F)F)ccc3N2)o1 (relative stereo)    criterion met
Cc1ccsc1[C@@H]1C[C@H]2Cc3ccccc3N1O2 (racemic)    criterion not met
Cc1ccc([C@@H]2C[C@H]3Cc4cc(Cl)ccc4N2O3)o1 (racemic)    criterion not met
Clc1ccc2c(c1)C[C@@H]1C[C@@H](c3cccs3)N2O1 (racemic)    criterion not met

---

System: Trypanosoma cruzi
experiment.summary: Antiparasitic activity against amastigote stage of Trypanosoma cruzi infected in Vero cells assessed as parasite growth inhibition after 24 hrs by hemocytometery
Format: functional, organism-based
measurement.context: Trypanosoma cruzi, Vero, 24 h; read-out: IC50
pIC50: −log10 of the molar value.
endpoint.label: pIC50

O=[N+]([O-])c1ccc([C@@H]2C[C@H]3Cc4cc(F)ccc4N2O3)o1 (racemic)    3.55
FC(F)(F)Oc1ccc2c(c1)C[C@@H]1C[C@@H](c3cccs3)N2O1 (racemic)    4.13
Cc1ccsc1[C@@H]1C[C@H]2Cc3cc(Cl)ccc3N1O2 (racemic)    4.00
O[C@@H]1Cc2cc(F)ccc2N[C@H](c2ccoc2)C1    < 3.39
c1coc([C@@H]2C[C@H]3Cc4ccccc4N2O3)c1 (racemic)    < 3.36
O[C@@H]1Cc2cc(Cl)ccc2N[C@H](c2cccs2)C1 (relative stereo)    < 3.92
Cn1cccc1[C@@H]1C[C@H]2Cc3cc(F)ccc3N1O2 (mixture of isomers)    < 3.41
Cc1ccsc1[C@@H]1C[C@H](O)Cc2cc(F)ccc2N1 (relative stereo)    < 3.92
Cc1ccc([C@@H]2C[C@H]3Cc4cc(F)ccc4N2O3)o1 (racemic)    < 3.41
Cc1ccc([C@@H]2C[C@H](O)Cc3cc(OC(F)(F)F)ccc3N2)o1 (relative stereo)    < 3.99
O[C@@H]1Cc2cc(OC(F)(F)F)ccc2N[C@H](c2ccco2)C1 (relative stereo)    < 3.97
Fc1ccc2c(c1)C[C@@H]1C[C@@H](c3cccs3)N2O1 (racemic)    3.99
Cc1ccsc1[C@@H]1C[C@H](O)Cc2cc(Cl)ccc2N1 (relative stereo)    4.38
O=[N+]([O-])c1ccc([C@@H]2C[C@H]3Cc4ccccc4N2O3)o1 (racemic)    < 3.91
O[C@@H]1Cc2cc(OC(F)(F)F)ccc2N[C@H](c2ccoc2)C1 (relative stereo)    < 3.97
O[C@@H]1Cc2cc(OC(F)(F)F)ccc2N[C@H](c2cccs2)C1    < 3.99
Cc1ccc([C@@H]2C[C@H]3Cc4cc(OC(F)(F)F)ccc4N2O3)s1 (racemic)    < 3.53
O[C@@H]1Cc2cc(F)ccc2N[C@H](c2cccs2)C1 (relative stereo)    < 3.42
CC1CS(=O)(=O)CCN1/N=C/c1ccc([N+](=O)[O-])o1 (centres undefined) [NIFURTIMOX]    5.80
